target: T1, Human PDGF-BB (human, UniProt P01127 82-190); experiment: Biacore SPR, antibody captured by anti-human Fc, PDGF-BB as analyte
T1 construct: Dimer of two B chains; also called hPDGF-BB; huPDGF-BB
T1 sequence (P01127 82-190 limits assumed): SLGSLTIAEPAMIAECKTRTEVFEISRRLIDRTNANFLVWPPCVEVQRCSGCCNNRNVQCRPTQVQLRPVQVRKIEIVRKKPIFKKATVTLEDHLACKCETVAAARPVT
Reported kon values follow for various binders
Record the value in M⁻¹ s⁻¹, omitting the unit from your answer.

Sample answers from the record:
{"columns": ["Binder", "kon / M⁻¹ s⁻¹"],
 "data": [
  ["CL-33855-IgG (antibody, V domains shown) VH: EVTLRESGPALVKPTQTLTLTCTFSGFSLSTYGMGVGWIRQPPGKALEWLANIWWDDDKYYNPSLKNRLTISKDTSKNQVVLTMTNMDPVDTATYYCARIETFGPKYSFDYWGQGTMVTVSS VL: EIVLTQSPGTLSLSPGERATLSCRASSGSIWYSFVSWYQQKPGQAPRLLIYADDQRASGIPDRFSGSGSGTDFTLTISRLEPEDFAVYYCQSYGINIDVVFGGGTKVEIK", "2e+07"],
  ["CL-33683-IgG (antibody, V domains shown) VH: EVTLRESGPALVKPTQTLTLTCTFSGFSLSTYGMGVGWIRQPPGKALEWLANIWWDDDKYYNPSLKNRLTISKDTSKNQVVLTMTNMDPVDTATYYCARIETIGPKYSFDYWGQGTMVTVSS VL: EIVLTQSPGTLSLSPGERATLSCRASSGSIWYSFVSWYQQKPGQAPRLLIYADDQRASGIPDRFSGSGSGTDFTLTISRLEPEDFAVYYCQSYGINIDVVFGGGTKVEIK", "1.9e+07"]
]}

Entry under review: CL-33731-IgG (antibody, V domains shown) VH: EVTLRESGPALVKPTQTLTLTCTFSGFSLSTYGMGVGWIRQPPGKALEWLANIWWDDDKYYNPSLKNRLTISKDTSKNQVVLTMTNMDPVDTATYYCARIESIPTSYSFDYWGQGTMVTVSS VL: EIVLTQSPGTLSLSPGERATLSCERSSGSIWQSYVSWYQQKPGQAPRLVIYADDQRATGIPDRFSGSGSGTDFTLTISRLEPEDFAVYYCQSYDIDIDVVFGGGTKVEIK . Reported kon?
8.1e+07

Also CL-33706-IgG (antibody, V domains shown) VH: EVTLRESGPALVKPTQTLTLTCTFSGFSLSTYGMGVGWIRQPPGKALEWLANIWWDDDKYYNPSLKNRLTISKDTSKNQVVLTMTNMDPVDTATYYCARIETMGPKYSFDYWGQGTMVTVSS VL: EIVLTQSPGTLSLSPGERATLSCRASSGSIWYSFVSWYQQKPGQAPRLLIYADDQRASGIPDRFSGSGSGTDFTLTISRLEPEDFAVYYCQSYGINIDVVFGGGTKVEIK , if possible.
1.8e+07

Also CL-33811-IgG (antibody, V domains shown) VH: EVTLRESGPALVKPTQTLTLTCTFSGFSLSTYGMGVGWIRQPPGKALEWLANIWWDDDKYYNPSLKNRLTISKDTSKNQVVLTMTNMDPVDTATYYCARIESSWTTYSFDYWGQGTMVTVSS VL: EIVLTQSPGTLSLSPGERATLSCERSSGSIWHSYVSWYQQKPGQAPRLLIYSDDQRATGIPDRFSGSGSGTDFTLTISRLEPEDFAVYYCQSYGIYIDVVFGGGTKVEIK , if possible.
2.7e+07

Also CL-33701-IgG (antibody, V domains shown) VH: EVTLRESGPALVKPTQTLTLTCTFSGFSLSTYGMGVGWIRQPPGKALEWLANIWWDDDKYYNPSLKNRLTISKDTSKNQVVLTMTNMDPVDTATYYCARIESLGTSYSFDYWGQGTMVTVSS VL: EIVLTQSPGTLSLSPGERATLSCERSSGDIWDYYVSWYQQKPGQAPRLVIYADDQRPSGIPDRFSGSGSGTDFTLTISRLEPEDFAVYYCQSYDLFIDVTFGGGTKVEIK , if possible.
7.3e+07

Also CL-33675-IgG (antibody, V domains shown) VH: EVTLRESGPALVKPTQTLTLTCTFSGFSLSTYGMGVGWIRQPPGKALEWLANIWWDDDKYYNPSLKNRLTISKDTSKNQVVLTMTNMDPVDTATYYCARIESSGPKYSFDYWGQGTMVTVSS VL: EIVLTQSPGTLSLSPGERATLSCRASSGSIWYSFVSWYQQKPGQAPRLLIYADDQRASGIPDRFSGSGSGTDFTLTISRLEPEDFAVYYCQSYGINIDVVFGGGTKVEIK , if possible.
3.6e+07

Provenance of the data: patent US20170015742A1
